- System name: human ether-à-go-go-related gene (hERG) potassium channel (human);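 note: peak tail current of the secondary pulse compared with the same well before compound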
- Sequence (Q12809 whole entry, looked up): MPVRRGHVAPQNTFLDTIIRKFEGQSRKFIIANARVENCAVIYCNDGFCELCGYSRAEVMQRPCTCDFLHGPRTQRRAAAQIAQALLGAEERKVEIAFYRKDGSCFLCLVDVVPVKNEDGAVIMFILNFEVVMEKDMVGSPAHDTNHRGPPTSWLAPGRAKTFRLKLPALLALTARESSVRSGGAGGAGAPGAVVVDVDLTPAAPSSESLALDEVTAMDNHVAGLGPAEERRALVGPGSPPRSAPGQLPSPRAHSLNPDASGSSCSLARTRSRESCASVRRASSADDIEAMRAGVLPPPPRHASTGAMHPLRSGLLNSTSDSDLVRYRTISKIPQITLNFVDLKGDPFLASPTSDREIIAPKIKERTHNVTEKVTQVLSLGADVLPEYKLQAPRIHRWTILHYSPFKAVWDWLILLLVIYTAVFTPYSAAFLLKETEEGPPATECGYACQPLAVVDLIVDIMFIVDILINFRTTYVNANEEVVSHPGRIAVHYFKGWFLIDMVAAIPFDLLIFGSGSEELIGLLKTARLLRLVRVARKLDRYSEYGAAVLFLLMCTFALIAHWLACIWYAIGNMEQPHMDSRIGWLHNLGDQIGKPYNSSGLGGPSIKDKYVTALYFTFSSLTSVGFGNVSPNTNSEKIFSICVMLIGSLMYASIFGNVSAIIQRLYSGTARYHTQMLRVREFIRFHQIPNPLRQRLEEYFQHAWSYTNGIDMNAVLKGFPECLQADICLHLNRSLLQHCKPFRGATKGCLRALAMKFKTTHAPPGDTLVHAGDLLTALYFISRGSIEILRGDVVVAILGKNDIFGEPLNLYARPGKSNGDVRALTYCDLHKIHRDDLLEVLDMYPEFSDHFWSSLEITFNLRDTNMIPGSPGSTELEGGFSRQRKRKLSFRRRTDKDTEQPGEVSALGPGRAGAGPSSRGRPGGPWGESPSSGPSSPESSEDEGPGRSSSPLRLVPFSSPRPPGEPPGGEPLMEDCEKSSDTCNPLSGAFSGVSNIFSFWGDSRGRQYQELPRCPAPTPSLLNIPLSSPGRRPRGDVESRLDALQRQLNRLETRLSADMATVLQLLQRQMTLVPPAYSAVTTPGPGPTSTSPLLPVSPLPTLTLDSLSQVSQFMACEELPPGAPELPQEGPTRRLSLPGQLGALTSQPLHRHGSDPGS
- Test summary: primary screen, population patch clamp on CHO cells stably expressing hERG; higher = less effect of the substance
In all, about 310,000 compounds went through this assay and about 14,000 (4.5%) showed an effect of 50% or more. Effects have a minus sign here. What follows is part of a selection rich in strong results, with near analogues and random picks from the rest.
Reported metric: hERG current change (%, negative = inhibition) at 10uM (%)
The response must be a number in % with no trailing unit.

| Compound | System name | Recorded result |
| --- | --- | --- |
| Cc1cc(C)c(NC(=O)CN(C)C(C)C(=O)N2CCc3ccccc32)c(C)c1 (stereo not drawn) | human ether-à-go-go-related gene (hERG) potassium channel (human) | -50.3 |
| CCCCN(C)C(=O)c1nc2ccccn2c1CN1CCN(c2cnccn2)CC1 | human ether-à-go-go-related gene (hERG) potassium channel (human) | -12.4 |
| CC(C(=O)N1CCc2ccccc21)N(C)CC(=O)Nc1ccccc1Cl (stereo not drawn) | human ether-à-go-go-related gene (hERG) potassium channel (human) | -29.2 |
| O=C(N/N=C/c1cccs1)C1CC(=O)N(c2ccccc2)C1 (stereo not drawn) | human ether-à-go-go-related gene (hERG) potassium channel (human) | -8.24 |
| CS(=O)(=O)N1CCN(C(=O)c2csc3ccccc23)CC1 | human ether-à-go-go-related gene (hERG) potassium channel (human) | 2.35 |
| COc1ccc(CCN2CC(C(=O)O)CC2=O)cc1OC (stereo not drawn) | human ether-à-go-go-related gene (hERG) potassium channel (human) | 0.984 |

**Q:** Reported hERG current change (%, negative = inhibition) at 10uM, compound `Cc1ccc(C(=O)NCC(=O)O)s1` : ____
**A:** 23.8

**Q:** Form field: reported hERG current change (%, negative = inhibition) at 10uM of COc1ccc(CCN2CC(C(=O)NCc3ccc(F)cc3)CC2=O)cc1OC (stereo not drawn)
**A:** 2.45

**Q:** // query hERG current change (%, negative = inhibition) at 10uM value for entry `Cc1ccc(S(=O)(=O)/C(C#N)=C/c2c(N3CCC(C(N)=O)CC3)nc3ccccn3c2=O)cc1`
**A:** -55.3

**Q:** Which measured hERG current change (%, negative = inhibition) at 10uM value corresponds to CCOC(=O)C(CC)Sc1ncnc2nc[nH]c12 (stereo not drawn) ?
**A:** -12.4

**Q:** What hERG current change (%, negative = inhibition) at 10uM value was documented for this compound, `Cc1ccccc1CC(=O)Nc1ccc2c(C)cc(=O)oc2c1` ?
**A:** -15.3

**Q:** Give its hERG current change (%, negative = inhibition) at 10uM value. Item: `CS/C(N)=N/S(=O)(=O)c1ccc(NC(C)=O)cc1`
**A:** 17.6

**Q:** Requested field: hERG current change (%, negative = inhibition) at 10uM. Item: `N#C/C(=C\c1c(N2CCC(C(N)=O)CC2)nc2ccccn2c1=O)S(=O)(=O)c1ccccc1`
**A:** -4.45
